All values here come from paper PMC4965148.

- Measured Target: UniProt P41145
- Sequence (P41145 whole entry): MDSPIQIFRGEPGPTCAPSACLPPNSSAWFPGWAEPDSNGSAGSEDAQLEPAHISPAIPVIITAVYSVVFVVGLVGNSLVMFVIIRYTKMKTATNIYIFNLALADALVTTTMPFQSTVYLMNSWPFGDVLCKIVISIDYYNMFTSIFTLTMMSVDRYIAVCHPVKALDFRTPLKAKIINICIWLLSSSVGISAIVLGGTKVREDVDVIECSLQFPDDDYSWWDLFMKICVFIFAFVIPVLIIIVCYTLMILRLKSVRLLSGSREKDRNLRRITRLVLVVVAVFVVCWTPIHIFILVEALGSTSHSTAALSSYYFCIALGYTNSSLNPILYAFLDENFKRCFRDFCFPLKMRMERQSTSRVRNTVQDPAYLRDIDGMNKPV
pIC50: −log10 of the molar value.
Observable: pIC50

## Input Form field: pIC50 recorded for c1cn(-c2cc(NC3=NC[C@@]4(CN5CCC4CC5)O3)ncn2)cn1 [BMS-933043] with UniProt P41145 (enter value)
## Output < 4.52

* * *

- Measured Target: Glucocorticoid receptor (Homo sapiens, UniProt P04150)
- Sequence (P04150 1-777): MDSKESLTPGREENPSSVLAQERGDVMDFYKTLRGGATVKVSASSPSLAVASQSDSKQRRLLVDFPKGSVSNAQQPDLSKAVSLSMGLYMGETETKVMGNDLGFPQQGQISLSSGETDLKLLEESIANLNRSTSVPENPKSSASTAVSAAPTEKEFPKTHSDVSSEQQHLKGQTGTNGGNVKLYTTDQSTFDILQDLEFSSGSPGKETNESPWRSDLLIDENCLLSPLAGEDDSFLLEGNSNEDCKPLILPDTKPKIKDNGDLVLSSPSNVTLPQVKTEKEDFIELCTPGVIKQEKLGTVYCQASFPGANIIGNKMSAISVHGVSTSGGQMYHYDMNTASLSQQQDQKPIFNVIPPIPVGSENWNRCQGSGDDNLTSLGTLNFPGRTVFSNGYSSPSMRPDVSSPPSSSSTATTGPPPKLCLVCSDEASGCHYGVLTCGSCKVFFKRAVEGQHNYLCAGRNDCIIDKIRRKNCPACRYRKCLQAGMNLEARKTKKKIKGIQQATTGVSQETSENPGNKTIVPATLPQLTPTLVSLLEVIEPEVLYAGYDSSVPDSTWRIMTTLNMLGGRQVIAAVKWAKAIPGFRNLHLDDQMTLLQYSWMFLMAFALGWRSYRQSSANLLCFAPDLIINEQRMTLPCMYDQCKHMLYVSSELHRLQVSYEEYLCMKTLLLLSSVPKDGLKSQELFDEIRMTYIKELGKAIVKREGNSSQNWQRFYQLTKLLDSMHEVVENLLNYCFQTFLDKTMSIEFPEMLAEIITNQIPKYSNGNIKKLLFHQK
Observable: IC50

## Input I'd like to know its IC50. The compound in question is c1cn(-c2cc(NC3=NC[C@@]4(CN5CCC4CC5)O3)ncn2)cn1 [BMS-933043]
## Output > 150 µM

* * *

- Measured Target: rat α4β2 nAChR (Rattus norvegicus, UniProt P09483+P12390)
- Construct: expressed in transfected cells; host or cells: HEK293 (made by Bristol-Myers Squibb)
- Sequence (P09483 31-630): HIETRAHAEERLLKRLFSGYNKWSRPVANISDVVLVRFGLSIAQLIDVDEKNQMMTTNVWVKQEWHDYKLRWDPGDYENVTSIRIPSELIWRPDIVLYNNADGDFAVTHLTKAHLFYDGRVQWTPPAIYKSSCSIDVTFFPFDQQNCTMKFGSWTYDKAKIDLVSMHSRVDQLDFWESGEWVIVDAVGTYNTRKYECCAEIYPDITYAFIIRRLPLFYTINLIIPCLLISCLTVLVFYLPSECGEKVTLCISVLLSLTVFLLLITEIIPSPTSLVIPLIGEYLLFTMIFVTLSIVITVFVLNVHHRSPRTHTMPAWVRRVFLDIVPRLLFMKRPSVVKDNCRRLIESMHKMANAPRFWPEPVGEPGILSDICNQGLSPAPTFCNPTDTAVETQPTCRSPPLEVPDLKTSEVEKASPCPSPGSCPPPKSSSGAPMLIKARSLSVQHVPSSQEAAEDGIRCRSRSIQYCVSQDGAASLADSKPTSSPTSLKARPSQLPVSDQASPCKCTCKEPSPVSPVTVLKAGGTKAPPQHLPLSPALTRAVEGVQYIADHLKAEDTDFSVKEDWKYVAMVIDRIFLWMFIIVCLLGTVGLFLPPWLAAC
- Sequence (P12390 25-500): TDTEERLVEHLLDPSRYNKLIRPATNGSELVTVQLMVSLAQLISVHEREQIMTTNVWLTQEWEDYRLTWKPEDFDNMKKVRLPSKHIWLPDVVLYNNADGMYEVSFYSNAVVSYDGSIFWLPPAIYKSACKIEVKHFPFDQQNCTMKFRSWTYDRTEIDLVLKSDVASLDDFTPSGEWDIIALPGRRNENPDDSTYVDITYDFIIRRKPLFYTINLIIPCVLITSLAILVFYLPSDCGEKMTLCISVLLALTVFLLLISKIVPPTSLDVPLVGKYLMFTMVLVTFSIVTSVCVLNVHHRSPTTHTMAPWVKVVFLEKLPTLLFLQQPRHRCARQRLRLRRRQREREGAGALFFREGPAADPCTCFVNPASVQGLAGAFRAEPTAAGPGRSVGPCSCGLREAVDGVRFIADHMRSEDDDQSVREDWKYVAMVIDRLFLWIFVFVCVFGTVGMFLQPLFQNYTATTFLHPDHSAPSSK
- Assay Details: Ca2+ flux (FLIPR) agonist/antagonist assay
- Format: cell-based
- Assay Setup: FLIPR antagonist mode, EC90 ACh
Observable: IC50

## Input I'd like to know its IC50. The molecule in question is c1cn(-c2cc(NC3=NC[C@@]4(CN5CCC4CC5)O3)ncn2)cn1
## Output > 30 µM

* * *

- Assay Details: Plasma and brain concentrations after dosing
- Type: in vivo, rat
- Assay Setup: rat, brain/plasma, sc, 1 mg/kg, Rat N40 Gating; 1 mg/kg sc; 30 min
Observable: Kp at 30 min
The reply should be a number, written without any unit.

## Input I'd like to know its Kp at 30 min. The compound in question is c1cn(-c2cc(NC3=NC[C@@]4(CN5CCC4CC5)O3)ncn2)cn1 [BMS-933043]
## Output 0.33

* * *

- Measured Target: α7 nAChR (Rattus norvegicus, UniProt Q05941)
- Construct: One forebrain hemisphere from each animal was thawed and homogenized in assay buffer
- Sequence (Q05941 23-502): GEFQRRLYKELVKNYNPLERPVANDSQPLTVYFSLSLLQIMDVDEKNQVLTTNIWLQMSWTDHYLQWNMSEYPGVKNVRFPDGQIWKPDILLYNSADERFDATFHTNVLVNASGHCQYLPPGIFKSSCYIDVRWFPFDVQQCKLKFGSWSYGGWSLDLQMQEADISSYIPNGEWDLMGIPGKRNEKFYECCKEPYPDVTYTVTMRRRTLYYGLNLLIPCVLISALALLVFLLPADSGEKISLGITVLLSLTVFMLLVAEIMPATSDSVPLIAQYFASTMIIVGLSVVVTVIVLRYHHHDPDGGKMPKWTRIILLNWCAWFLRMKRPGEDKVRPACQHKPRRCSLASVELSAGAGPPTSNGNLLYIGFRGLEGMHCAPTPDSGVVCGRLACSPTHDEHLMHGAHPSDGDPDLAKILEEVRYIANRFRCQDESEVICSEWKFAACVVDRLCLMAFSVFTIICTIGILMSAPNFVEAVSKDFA
- Assay Details: Ex vivo α7 nAChR occupancy ([3H]-A-585539)
- Assay Setup: rats; read-out: total plasma concentration achieving 50% ex vivo α7 nAChR occupancy
Observable: EC50
Record the result as number plus unit.

## Input Form field: EC50 recorded for c1cn(-c2cc(NC3=NC[C@@]4(CN5CCC4CC5)O3)ncn2)cn1 with α7 nAChR (Rattus norvegicus, UniProt Q05941) (enter value)
## Output 810 nM
